- experimental target: Aromatase (Homo sapiens, UniProt P11511)
- test method notes: Reversible inhibition of recombinant human CYP19A1 assessed as inhibition of DBF conversion to fluorescein by-product by fluorometry
quantity name: Ki
# answer = value followed by unit

CCOC(=O)c1nnn(Cc2ccccc2)c1-c1ccc(Br)cc1: 640 nM

Please examine the following record next.
Ask: Please look up its Ki: CCOC(=O)c1nnn(Cc2cccc(Br)c2)c1-c1ccc(Br)cc1
Result: 20 nM

---

Target sequence: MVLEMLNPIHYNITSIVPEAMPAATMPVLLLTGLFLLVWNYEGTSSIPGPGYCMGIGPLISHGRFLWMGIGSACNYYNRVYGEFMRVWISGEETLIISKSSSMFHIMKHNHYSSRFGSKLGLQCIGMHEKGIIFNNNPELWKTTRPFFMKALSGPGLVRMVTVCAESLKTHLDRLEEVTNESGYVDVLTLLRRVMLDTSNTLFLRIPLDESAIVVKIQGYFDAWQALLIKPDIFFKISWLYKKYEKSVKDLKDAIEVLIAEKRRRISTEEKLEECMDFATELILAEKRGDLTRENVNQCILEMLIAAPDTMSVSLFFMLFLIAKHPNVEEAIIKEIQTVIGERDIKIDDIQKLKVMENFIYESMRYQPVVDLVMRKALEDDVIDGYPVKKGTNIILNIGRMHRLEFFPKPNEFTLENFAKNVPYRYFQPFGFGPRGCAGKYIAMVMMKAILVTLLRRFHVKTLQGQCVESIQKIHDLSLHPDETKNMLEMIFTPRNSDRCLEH
Below is a list of entries, each paired with its recorded Ki value.
// return numeric value only (unit: µM, not printed)

In the examples that follow, each entry is paired with its recorded Ki.
CCOC(=O)c1nnn(Cc2ccccc2)c1-c1ccc(C)cc1: 0.71
CCOC(=O)c1nnn(Cc2ccccc2)c1-c1ccc2c(c1)OCO2: 0.71
CCOC(=O)c1nnn(Cc2cccc(Br)c2)c1-c1ccccc1: 0.15

Please examine the following record next.
Ask: Please look up its Ki: CCOC(=O)c1nnn(Cc2ccccc2)c1-c1ccc(Cl)cc1
Result: 0.36

Values from ChEMBL document CHEMBL3352142
